TARGET_ENTITY: Fuc(a1-2)[GalNAc(a1-3)]Gal(b1-4)GlcNAc(b1-3)Gal(b1-4)GlcNAc
PROTOCOL_DETAILS: glycan array binding signal (z-score within array); higher = stronger binding
EXPERIMENTAL_CONTEXT: glycan notation: IUPAC condensed, linker removed
This is one part of a sample in which the strongest signals are shown more often than they occur.
# glycan array binding signal (z-score) listing for each entry below

{"BINDER": "Clone646PsrP (Streptococcus pneumoniae) (protein) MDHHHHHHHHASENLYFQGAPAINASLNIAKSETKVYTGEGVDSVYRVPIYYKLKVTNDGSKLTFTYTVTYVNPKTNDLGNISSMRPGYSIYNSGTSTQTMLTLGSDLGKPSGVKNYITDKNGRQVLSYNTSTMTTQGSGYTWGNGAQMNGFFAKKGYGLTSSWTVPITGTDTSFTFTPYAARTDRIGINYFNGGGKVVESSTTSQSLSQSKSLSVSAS", "glycan array binding signal (z-score)": -0.638}
{"BINDER": "SAG3 (Toxoplasma gondii), Q9BJ39 (protein) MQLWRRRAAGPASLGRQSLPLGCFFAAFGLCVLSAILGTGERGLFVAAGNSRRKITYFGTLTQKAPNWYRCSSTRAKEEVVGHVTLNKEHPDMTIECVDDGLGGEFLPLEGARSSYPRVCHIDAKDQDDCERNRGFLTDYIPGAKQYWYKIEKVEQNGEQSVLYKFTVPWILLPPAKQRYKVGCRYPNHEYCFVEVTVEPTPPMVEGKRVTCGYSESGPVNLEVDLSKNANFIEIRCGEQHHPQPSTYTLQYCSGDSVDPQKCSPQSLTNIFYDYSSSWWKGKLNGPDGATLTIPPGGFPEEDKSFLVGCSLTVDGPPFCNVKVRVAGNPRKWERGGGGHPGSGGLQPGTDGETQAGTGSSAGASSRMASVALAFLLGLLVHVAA", "glycan array binding signal (z-score)": -0.084}
{"BINDER": "SSR1 (Sclerotium rolfsii), A0A0M3KL30 (protein) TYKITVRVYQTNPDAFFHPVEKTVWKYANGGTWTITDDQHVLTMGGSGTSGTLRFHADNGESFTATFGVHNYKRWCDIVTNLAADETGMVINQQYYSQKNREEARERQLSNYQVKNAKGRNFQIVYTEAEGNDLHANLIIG", "glycan array binding signal (z-score)": 0.292}
